Source: ChEMBL document CHEMBL5724806

- protocol: The drug is tested on the gut metagenome community of A-02 with ENA study accession number: PRJEB31790 for biotransformation under microaerobic condition. The drug concentrations were measured over 7 timepoints collected between 0 and 12 hours of incubation by liquid-chromatography-coupled mass spectrometry (LC–MS)
- Type: ADME
- Design: dose 5 uM, timepoint 0, 0.75, 1.5, 3, 6, 9, 12 hours
- experimental parameters: 5 µM
reported metric: Bacterial Biotransformation

compound: CCOC(=O)C1=C(COCCN)NC(C)=C(C(=O)OC)C1c1ccccc1Cl (stereo not drawn)
obs value: Compound metabolized
--
compound: C=CC[C@@H]1/C=C(\C)C[C@H](C)C[C@H](OC)[C@H]2O[C@@](O)(C(=O)C(=O)N3CCCC[C@H]3C(=O)O[C@H](/C(C)=C/[C@@H]3CC[C@@H](O)[C@H](OC)C3)[C@H](C)[C@@H](O)CC1=O)[C@H](C)C[C@@H]2OC.O
obs value: Compound metabolized
